- protocol.summary: Toxicity in Galleria mellonella assessed as survival at 75 mg/kg measured after 4 days relative to control
- Assay type: organism-based
- condition.set: in vivo, time 4 day
test.readout: survival at 96 h (%)
One number for each entry, in %.

Prompt line: # input compound: CCCCCCCCCCCCCCCCN[C@@H](CCCCN)C(=O)N[C@@H](CCCNC(=N)N)C(=O)N[C@@H](CCCCN)C(=O)N[C@@H](CCCNC(=N)N)C(=O)O ; wanted: its survival at 96 h
Response line: 100

====

Would you kindly list Activity for each of these molecules?
- protocol.summary: Self assembly property of the compound assessed as zeta potential at 250 ug/mL at pH 7 measured after 2 hrs
- Format: physicochemical
- condition.set: pH 7, 2 h, dose 250 µg/ml
Starred links: 1 amine or outer side, 2 acyl side, 3 side chain; linkers in the order of their positions; H or OH if unused. Non-standard residues stand in square brackets, D forms with d. Residues, ends and D or L forms follow the SMILES beside them. ξ: configuration not given here. X3 = CCCCCCCCCCCCCCCCCCN([C@@H](Cc1c[nH]cn1)C(=O)[*:2])[*:1]; X5 = CCCCCCCCCCCCCCCCCCN([C@@H](CCCNC(=N)N)C(=O)[*:2])[*:1]; X1 = CCCCCCCCCCCCCCCCN([C@@H](CCCCN)C(=O)[*:2])[*:1]; X2 = CCCCCCCCCCCCCCCCN([C@@H](C)C(=O)[*:2])[*:1]; ξDap = NCC(N)C(=O)O
Numbers only, in mV.

Here is how some molecules turned out for Activity.
CCCCCCCCCCCCCCCCCCN[C@@H](Cc1c[nH]cn1)C(=O)N[C@@H](Cc1c[nH]cn1)C(=O)NC(CN)C(=O)NC(CN)C(=O)NC(CN)C(=O)O (stereo partly specified) (H-[X3]H[ξDap][ξDap][ξDap]-OH) : 30.4
CCCCCCCCCCCCCCCCN[C@@H](CCCCN)C(=O)N[C@@H](CCCNC(=N)N)C(=O)N[C@@H](CCCCN)C(=O)N[C@@H](CCCNC(=N)N)C(=O)O : 15
CCCCCCCCCCCCCCCCCCN[C@@H](C)C(=O)N[C@@H](C)C(=O)NC(CN)C(=O)NC(CN)C(=O)NC(CN)C(=O)O (stereo partly specified) : 10.3
CCCCCCCCCCCCCCCCN[C@@H](C)C(=O)N[C@@H](C)C(=O)N[C@@H](C)C(=O)N[C@@H](CCCCN)C(=O)N[C@@H](CCCNC(=N)N)C(=O)N[C@@H](CCCCN)C(=O)N[C@@H](CCCNC(=N)N)C(=O)O (H-[X2]AAKRKR-OH) : 10.8
CCCCCCCCCCCCCCCCN[C@@H](CCCCN)C(=O)N[C@@H](Cc1c[nH]cn1)C(=O)N[C@@H](CCCCN)C(=O)N[C@@H](Cc1c[nH]cn1)C(=O)N[C@@H](CCCCN)C(=O)O (H-[X1]HKHK-OH) : 15.8

Prompt line: # input molecule: CCCCCCCCCCCCCCCCCCN[C@@H](CCCNC(=N)N)C(=O)N[C@@H](CCCNC(=N)N)C(=O)NC(CN)C(=O)NC(CN)C(=O)NC(CN)C(=O)O (stereo partly specified) (H-[X5]R[ξDap][ξDap][ξDap]-OH) ; wanted: its Activity
Response line: 30.1

Entry source: ChEMBL document CHEMBL5365541
